Assay: Pharmacokinetics in CD1 mice
Type: in vivo, CD-1 mice
Settings: mouse, in vivo; mice, after IP injection; read-out: circulating plasma half-life (converted)
Description: Serial bleeding (about 80 μL blood/time point) was performed via submandibular or saphenous vein at each time point. All blood samples were immediately transferred into prechilled microcentrifuge tubes containing 2 μL K2-EDTA (0.5M) as anti-coagulant and placed on wet ice. […] Plasma concentration versus time data were analyzed by non-compartmental approaches using the Phoenix WinNonlin 6.3 software program. […]
Starred links: 1 amine or outer side, 2 acyl side, 3 side chain; linkers in the order of their positions; H or OH if unused. Positions of bridges follow the written chain, without caps; N, C: chain ends. Non-standard residues stand in square brackets, D forms with d. Chains are numbered I, II in the order given. X1 = O=C(CCOCCOCCOCCN(CCOCCOCCOCCn1cc(CCC(=O)[*:2])nn1)CCOCCOCCOCCn1cc(CCC(=O)[*:3])nn1)[*:1]; TATA = O=C(CC[*:1])N1CN(C(=O)CC[*:2])CN(C(=O)CC[*:3])C1; Hyp = O=C(O)[C@@H]1C[C@@H](O)CN1; hArg = N=C(N)NCCCC[C@H](N)C(=O)O; tBuAla = CC(C)(C)C[C@H](N)C(=O)O; Nle = CCCC[C@H](N)C(=O)O
readout name: half-life (h)
Give the quantity in h, number only.

Report half-life, nothing else, for this substance: I: A[hArg]DC[Hyp]LVNPLCLHP[dD]W[hArg]C-NH2 / II: Ac-C[tBuAla]PE[dK]PYCFADPY[Nle]CA-NH2 / III: Ac-C[tBuAla]PE[dK]PYCFADPY[Nle]CA-NH2 (linker I:4-I:11-I:18, II:1-II:8-II:15, III:1-III:8-III:15 via TATA; linker I:N-II:5-III:5 via X1) [BCY12491]
2.5

* * *

experiment: Pharmacokinetics in cynomolgus monkey; format: in vivo; settings: plasma, IV infusion (15 min), 9.2 mg/kg, read-out: T1/2 (converted)
Starred links: 1 amine or outer side, 2 acyl side, 3 side chain; linkers in the order of their positions; H or OH if unused. Positions of bridges follow the written chain, without caps; N, C: chain ends. Non-standard residues stand in square brackets, D forms with d. Chains are numbered I, II in the order given. X1 = O=C(CCOCCOCCOCCN(CCOCCOCCOCCn1cc(CCC(=O)[*:2])nn1)CCOCCOCCOCCn1cc(CCC(=O)[*:3])nn1)[*:1]; TATA = O=C(CC[*:1])N1CN(C(=O)CC[*:2])CN(C(=O)CC[*:3])C1; d1Nal = N[C@H](Cc1cccc2ccccc12)C(=O)O; Hyp = O=C(O)[C@@H]1C[C@@H](O)CN1; hArg = N=C(N)NCCCC[C@H](N)C(=O)O; tBuAla = CC(C)(C)C[C@H](N)C(=O)O; Nle = CCCC[C@H](N)C(=O)O
readout name: half-life (h)
Give the quantity in h, number only.

Report half-life, nothing else, for this substance: I: A[hArg]DC[Hyp]LVNPLCLEP[d1Nal]WTC-NH2 / II: Ac-C[tBuAla]PE[dK]PYCFADPY[Nle]CA-NH2 / III: Ac-C[tBuAla]PE[dK]PYCFADPY[Nle]CA-NH2 (linker I:4-I:11-I:18, II:1-II:8-II:15, III:1-III:8-III:15 via TATA; linker I:N-II:5-III:5 via X1) [BCY13272]
8.9

The measured values listed here are drawn from patent US20230129258A1.
